Source listed as ChEMBL document CHEMBL1144538.

Test system: Mus musculus
measurement.notes: Analgesic activity in Wistar Albino mouse at 20 mg/kg, po after 2 hrs by tail-flick technique
Assay type: functional
Threshold 50%. Activity below it: yes. Activity at it or above: no.

{"columns": ["structure.as.smiles", "cat"],
 "data": [
  ["O=c1c2ccccc2nc(N/N=C\\c2ccc(Cl)cc2)n1-c1ccccc1", "yes"],
  ["O=c1c2ccccc2nc(NN=C(c2ccccc2)c2ccccc2)n1-c1ccccc1", "yes"],
  ["C/C(=N\\Nc1nc2ccccc2c(=O)n1-c1ccccc1)c1ccccc1", "no"],
  ["CC/C(C)=N/Nc1nc2ccccc2c(=O)n1-c1ccccc1", "no"],
  ["O=c1c2ccccc2nc(NN=C2CCCCC2)n1-c1ccccc1", "no"],
  ["O=c1c2ccccc2nc(N/N=C\\c2ccc([N+](=O)[O-])cc2)n1-c1ccccc1", "yes"],
  ["O=c1c2ccccc2nc(N/N=C\\c2ccccc2)n1-c1ccccc1", "no"],
  ["O=C(O)Cc1ccccc1Nc1c(Cl)cccc1Cl", "no"],
  ["CCC/C(C)=N/Nc1nc2ccccc2c(=O)n1-c1ccccc1", "no"],
  ["CCC(CC)=NNc1nc2ccccc2c(=O)n1-c1ccccc1", "no"],
  ["O=C1Nc2ccccc2/C1=N\\Nc1nc2ccccc2c(=O)n1-c1ccccc1", "no"],
  ["Cc1ccccc1/C=N\\Nc1nc2ccccc2c(=O)n1-c1ccccc1", "yes"],
  ["O=c1c2ccccc2nc(N/N=C\\c2ccccc2Cl)n1-c1ccccc1", "yes"]
]}

###

Test system: Mus musculus
measurement.notes: Analgesic activity in Wistar Albino mouse at 20 mg/kg, po after 1 hr by tail-flick technique
Format: functional
Activity reference

{"columns": ["structure.as.smiles", "Activity (%)"],
 "data": [
  ["O=c1c2ccccc2nc(N/N=C\\c2ccc([N+](=O)[O-])cc2)n1-c1ccccc1", 45],
  ["CCC/C(C)=N/Nc1nc2ccccc2c(=O)n1-c1ccccc1", 62],
  ["O=C(O)Cc1ccccc1Nc1c(Cl)cccc1Cl", 55],
  ["O=c1c2ccccc2nc(N/N=C\\c2ccc(Cl)cc2)n1-c1ccccc1", 45],
  ["O=c1c2ccccc2nc(NN=C(c2ccccc2)c2ccccc2)n1-c1ccccc1", 41]
]}

###

Activity reference
System: Mus musculus
measurement.notes: Analgesic activity in Wistar Albino mouse at 20 mg/kg, po after 2 hrs by tail-flick technique
Assay type: functional

{"columns": ["structure.as.smiles", "Activity / %"],
 "data": [
  ["Cc1ccc(/C=N\\Nc2nc3ccccc3c(=O)n2-c2ccccc2)cc1", 50],
  ["COc1ccc(/C=N\\Nc2nc3ccccc3c(=O)n2-c2ccccc2)cc1", 50],
  ["O=c1c2ccccc2nc(N/N=C\\c2ccccc2[N+](=O)[O-])n1-c1ccccc1", 49]
]}
